test.target: CDK9/Cyclin T1 (Homo sapiens, UniProt P50750)
Sequence (P50750 whole entry): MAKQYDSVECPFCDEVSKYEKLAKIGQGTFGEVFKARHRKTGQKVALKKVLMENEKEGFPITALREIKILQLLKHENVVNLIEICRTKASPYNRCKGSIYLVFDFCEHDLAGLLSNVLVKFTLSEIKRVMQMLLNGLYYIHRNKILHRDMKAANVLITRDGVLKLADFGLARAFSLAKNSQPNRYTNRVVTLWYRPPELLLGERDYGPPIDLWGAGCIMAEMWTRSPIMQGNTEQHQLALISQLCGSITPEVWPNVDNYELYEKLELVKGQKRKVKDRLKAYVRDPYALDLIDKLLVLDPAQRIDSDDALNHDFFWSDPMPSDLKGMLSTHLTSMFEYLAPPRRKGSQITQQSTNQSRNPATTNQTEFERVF
Sequence (O60563 whole entry partner): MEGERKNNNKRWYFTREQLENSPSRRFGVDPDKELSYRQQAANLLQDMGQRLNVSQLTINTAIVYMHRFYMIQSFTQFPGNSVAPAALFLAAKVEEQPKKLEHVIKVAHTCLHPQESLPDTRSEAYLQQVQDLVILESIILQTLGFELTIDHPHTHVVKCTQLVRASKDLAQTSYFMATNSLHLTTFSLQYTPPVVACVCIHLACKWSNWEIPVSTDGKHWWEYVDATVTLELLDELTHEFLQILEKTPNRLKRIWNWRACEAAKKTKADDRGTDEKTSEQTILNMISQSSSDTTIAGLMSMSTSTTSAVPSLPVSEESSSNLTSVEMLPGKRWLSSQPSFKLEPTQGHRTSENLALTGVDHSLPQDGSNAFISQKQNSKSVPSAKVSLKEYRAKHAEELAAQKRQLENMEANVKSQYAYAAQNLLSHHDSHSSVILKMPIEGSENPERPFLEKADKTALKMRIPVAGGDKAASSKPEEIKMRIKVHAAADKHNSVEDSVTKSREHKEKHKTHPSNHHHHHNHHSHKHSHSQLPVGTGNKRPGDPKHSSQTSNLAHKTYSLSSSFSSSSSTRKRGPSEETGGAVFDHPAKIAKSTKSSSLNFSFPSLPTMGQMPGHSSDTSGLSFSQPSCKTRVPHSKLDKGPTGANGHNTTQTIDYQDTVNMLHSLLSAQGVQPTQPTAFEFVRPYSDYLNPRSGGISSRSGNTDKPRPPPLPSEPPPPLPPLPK
run.description: LanthaScreen Eu Kinase Binding Assay, CDK9/Cyclin T1
applied.conditions: tracer 236, read-out: CDK9/Cyclin T1 (activity range), Kd
pKd: −log10 of the molar value.
readout: pKd

>>> measured_value("COc1ccccc1-c1ccnc(Nc2cccc(CS(N)(=O)=O)c2)c1")
"> 7.00"
>>> measured_value("COc1ccccc1-c1ccnc(Nc2cccc(S(N)(=O)=O)c2)c1 [Compound D1]")
"> 7.00"
>>> measured_value("COc1cc(F)ccc1-c1ccnc(Nc2cccc(CS(N)(=O)=O)c2)c1")
"> 7.00"
>>> measured_value("COc1ccccc1-c1ccnc(Nc2ccc(S(N)(=O)=O)cc2)c1 [Compound E1]")
"6.00 to 7.00"
>>> measured_value("COc1ccccc1-c1ccnc(Nc2cccc(S(C)(=O)=O)c2)c1")
"> 7.00"
>>> measured_value("COc1ccccc1-c1ccnc(Nc2ccccc2)c1")
"5.00 to 6.00"
>>> measured_value("COc1ccccc1-c1ccnc(Nc2cccc(CCS(N)(=O)=O)c2)c1")
"> 7.00"
>>> measured_value("CCCNS(=O)(=O)Cc1cccc(Nc2cc(-c3ccc(F)cc3OC)ccn2)c1")
"> 7.00"
>>> measured_value("COc1cc(F)ccc1-c1ccnc(Nc2cccc(S(=O)(=O)NC(C)(C)C)c2)c1 [Compound D2]")
"5.00 to 6.00"
>>> measured_value("COc1cc(F)ccc1-c1ccnc(Nc2cccc(CS(=O)(=O)N(C)C)c2)c1")
"> 7.00"
>>> measured_value("COc1cc(F)ccc1-c1ccnc(Nc2cccc(NC(C)=O)c2)c1")
"> 7.00"
>>> measured_value("COc1cc(F)ccc1-c1ccnc(Nc2cccc(NS(C)(=O)=O)c2)c1")
"> 7.00"
>>> measured_value("COc1ccccc1-c1ccnc(Nc2cccc([N+](=O)[O-])c2)c1")
"6.00 to 7.00"

====

test.target: CDK2/CyclinA (Homo sapiens, UniProt P24941)
run.description: LanthaScreen Eu Kinase Binding Assay, CDK2
applied.conditions: tracer 236, read-out: CDK2 (activity range), Kd
pKd: −log10 of the molar value.
readout: pKd

>>> measured_value("COc1ccccc1-c1ccnc(Nc2cccc(CCS(N)(=O)=O)c2)c1")
"6.00 to 7.00"
>>> measured_value("COc1cc(F)ccc1-c1ccnc(Nc2cccc(NC(C)=O)c2)c1")
"6.00 to 7.00"
>>> measured_value("COc1cc(F)ccc1-c1ccnc(Nc2cccc(NS(C)(=O)=O)c2)c1")
"> 7.00"
>>> measured_value("COc1ccccc1-c1ccnc(Nc2ccc(S(N)(=O)=O)cc2)c1 [Compound E1]")
"> 7.00"
>>> measured_value("CCCNS(=O)(=O)Cc1cccc(Nc2cc(-c3ccc(F)cc3OC)ccn2)c1")
"6.00 to 7.00"
>>> measured_value("COc1ccccc1-c1ccnc(Nc2cccc(S(C)(=O)=O)c2)c1")
"6.00 to 7.00"
>>> measured_value("COc1ccccc1-c1ccnc(Nc2cccc(S(N)(=O)=O)c2)c1 [Compound D1]")
"> 7.00"
>>> measured_value("COc1cc(F)ccc1-c1ccnc(Nc2cccc(CS(=O)(=O)N(C)C)c2)c1")
"6.00 to 7.00"
>>> measured_value("COc1cc(F)ccc1-c1ccnc(Nc2cccc(CS(N)(=O)=O)c2)c1")
"6.00 to 7.00"
>>> measured_value("COc1ccccc1-c1ccnc(Nc2cccc(CS(N)(=O)=O)c2)c1")
"> 7.00"

====

Listed compounds paired with reported Kd
test.target: CDK9/Cyclin K (Homo sapiens, UniProt P50750)
Sequence (O75909 1-357 isoform O75909-1 partner, one chain of several): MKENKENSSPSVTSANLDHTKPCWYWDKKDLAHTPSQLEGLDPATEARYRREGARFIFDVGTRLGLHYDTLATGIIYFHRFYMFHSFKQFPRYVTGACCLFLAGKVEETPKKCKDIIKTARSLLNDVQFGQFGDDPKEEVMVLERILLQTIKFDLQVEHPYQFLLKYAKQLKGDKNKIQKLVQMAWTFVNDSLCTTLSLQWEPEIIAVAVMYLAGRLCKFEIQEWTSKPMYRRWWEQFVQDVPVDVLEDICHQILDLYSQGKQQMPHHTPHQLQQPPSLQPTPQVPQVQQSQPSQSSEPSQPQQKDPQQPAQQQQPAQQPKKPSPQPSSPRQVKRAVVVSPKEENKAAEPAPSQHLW
run.description: LanthaScreen Eu Kinase Binding Assay, CDK9/Cyclin K
applied.conditions: tracer 236, read-out: CDK9/Cyclin K (activity range), Kd
readout: Kd

>>> measured_value("COc1ccccc1-c1ccnc(Nc2cccc(S(C)(=O)=O)c2)c1")
"< 100 nM"
>>> measured_value("COc1ccccc1-c1ccnc(Nc2ccc(S(N)(=O)=O)cc2)c1 [Compound E1]")
"< 100 nM"
>>> measured_value("COc1ccccc1-c1ccnc(Nc2cccc([N+](=O)[O-])c2)c1")
"100 to 1000 nM"
>>> measured_value("COc1ccccc1-c1ccnc(Nc2cccc(S(N)(=O)=O)c2)c1 [Compound D1]")
"< 100 nM"
>>> measured_value("COc1cc(F)ccc1-c1ccnc(Nc2cccc(CS(N)(=O)=O)c2)c1")
"< 100 nM"

====

test.target: CDK6/CyclinD3 (Homo sapiens)
Sequence (Q00534 whole entry): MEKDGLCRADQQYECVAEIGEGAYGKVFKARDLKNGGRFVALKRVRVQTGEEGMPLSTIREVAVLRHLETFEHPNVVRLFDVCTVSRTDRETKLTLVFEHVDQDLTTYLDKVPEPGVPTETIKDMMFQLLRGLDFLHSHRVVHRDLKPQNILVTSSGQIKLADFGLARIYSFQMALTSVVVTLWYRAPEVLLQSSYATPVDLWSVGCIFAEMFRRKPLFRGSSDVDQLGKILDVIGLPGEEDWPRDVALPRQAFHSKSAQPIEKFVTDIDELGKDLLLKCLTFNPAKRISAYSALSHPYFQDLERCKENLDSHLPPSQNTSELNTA
Sequence (P30281 whole entry partner): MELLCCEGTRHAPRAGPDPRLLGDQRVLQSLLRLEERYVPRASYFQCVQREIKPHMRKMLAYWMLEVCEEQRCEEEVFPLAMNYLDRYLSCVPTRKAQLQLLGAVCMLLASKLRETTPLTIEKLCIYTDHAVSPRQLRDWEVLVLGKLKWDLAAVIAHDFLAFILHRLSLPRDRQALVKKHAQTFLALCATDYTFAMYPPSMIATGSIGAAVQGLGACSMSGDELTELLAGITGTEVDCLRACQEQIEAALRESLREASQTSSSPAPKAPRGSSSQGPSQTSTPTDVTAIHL
run.description: Lance Ultra KinaSelect Assay, CDK6
applied.conditions: ULight MBP substrate, ATP 55 μM; read-out: CDK6 LANCE assay (activity range), IC50
Listed compounds paired with reported IC50
readout: IC50

>>> measured_value("COc1cc(F)ccc1-c1ccnc(Nc2cccc(CS(N)(=O)=O)c2)c1 [Compound G1]")
"> 10 µM"
>>> measured_value("COc1ccccc1-c1ccnc(Nc2cccc(S(N)(=O)=O)c2)c1 [Compound D1]")
"> 10 µM"

====

test.target: CDK9 (Homo sapiens, UniProt P50750)
Construct: purchased Invitrogen
Sequence (P50750 whole entry): as the sequence (P50750 whole entry) above
run.description: Lance Ultra KinaSelect Assay, CDK9
Type: biochemical
applied.conditions: ULight MBP substrate; cyclin partner not stated in Table 5; read-out: CDK9 LANCE assay (activity range), IC50
Description: This protocol describes how the Lance Ultra KinaSelect Assay was performed to determine half maximal inhibitory concentration (IC50) of compounds of general formula (I) and CDK/Cyclin complexes. […] It is detected by using a specific EU-labeled anti-phospho peptide antibody. […] The compounds of general formula (I) summarized in Table 5 were diluted from a 10 mM DMSO stock solution 1:10 in a total volume of 15 μL DMSO. […] Positive and negative controls were calculated from at least 8 different sample wells. […]
readout: IC50

>>> measured_value("COc1ccccc1-c1ccnc(Nc2cccc([N+](=O)[O-])c2)c1")
"1000 to 10000 nM"
>>> measured_value("COc1ccccc1-c1ccnc(Nc2ccc(S(N)(=O)=O)cc2)c1 [Compound E1]")
"100 to 1000 nM"
>>> measured_value("COc1cc(F)ccc1-c1ccnc(Nc2cccc(CS(N)(=O)=O)c2)c1")
"< 100 nM"
>>> measured_value("COc1ccccc1-c1ccnc(Nc2cccc(S(N)(=O)=O)c2)c1 [Compound D1]")
"< 100 nM"
>>> measured_value("COc1ccccc1-c1ccnc(Nc2cccc(CS(N)(=O)=O)c2)c1")
"< 100 nM"

====

Listed compounds paired with reported pIC50
test.target: CDK2/CyclinA (Homo sapiens, UniProt P24941)
Construct: purchased Proqinase
run.description: Lance Ultra KinaSelect Assay, CDK2
Format: biochemical
applied.conditions: ULight MBP substrate, ATP 3 μM; read-out: CDK2 LANCE assay (activity range), IC50
pIC50: −log10 of the molar value.
readout: pIC50

>>> measured_value("COc1ccccc1-c1ccnc(Nc2cccc(CCS(N)(=O)=O)c2)c1")
"5.00 to 6.00"
>>> measured_value("CCCNS(=O)(=O)Cc1cccc(Nc2cc(-c3ccc(F)cc3OC)ccn2)c1")
"5.00 to 6.00"
>>> measured_value("COc1cc(F)ccc1-c1ccnc(Nc2cccc(NS(C)(=O)=O)c2)c1")
"6.00 to 7.00"
>>> measured_value("COc1ccccc1-c1ccnc(Nc2ccc(S(N)(=O)=O)cc2)c1 [Compound E1]")
"> 7.00"
>>> measured_value("COc1ccccc1-c1ccnc(Nc2cccc(CS(N)(=O)=O)c2)c1")
"6.00 to 7.00"
>>> measured_value("COc1cc(F)ccc1-c1ccnc(Nc2cccc(CS(=O)(=O)N(C)C)c2)c1")
"5.00 to 6.00"
>>> measured_value("COc1cc(F)ccc1-c1ccnc(Nc2cccc(CS(N)(=O)=O)c2)c1")
"5.00 to 6.00"
>>> measured_value("COc1cc(F)ccc1-c1ccnc(Nc2cccc(NC(C)=O)c2)c1")
"6.00 to 7.00"
>>> measured_value("COc1ccccc1-c1ccnc(Nc2cccc(S(N)(=O)=O)c2)c1 [Compound D1]")
"6.00 to 7.00"
